B1: FBF1 (parent)
chain: LQRASILDMRRDHEEQLQRLKLLK

Variants of: B1
Protocol description: protein stability index of a GFP-peptide fusion (GPS, HEK-293T) (PSI 1-6); higher = more stable;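 note: lentivirally expressed fusions sorted by FACS into six bins by GFP to DsRed ratio, PSI derived from sequencing read proportions per bin multiplied by bin number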
Conditions: c terminus: a fixed tail appended
Please enter fulfilled where protein stability index is greater than or equal to 3, and not fulfilled where it is lower.

residue_change=A4Q qualitative_label=fulfilled
residue_change=R11Y qualitative_label="not fulfilled"
residue_change=Q2V qualitative_label="not fulfilled"
residue_change=R11S qualitative_label=fulfilled
residue_change=L17D qualitative_label=fulfilled
residue_change=R3D qualitative_label=fulfilled
residue_change=R10D qualitative_label=fulfilled
residue_change=S5T qualitative_label=fulfilled
residue_change=L17E qualitative_label=fulfilled
residue_change=L1S qualitative_label=fulfilled
residue_change=Q16M qualitative_label="not fulfilled"
residue_change=L20C qualitative_label=fulfilled
residue_change=L22W qualitative_label=fulfilled
residue_change=R10Y qualitative_label="not fulfilled"
residue_change=L17G qualitative_label=fulfilled
residue_change=R19H qualitative_label="not fulfilled"
residue_change=S5Y qualitative_label="not fulfilled"
residue_change=H13M qualitative_label=fulfilled
residue_change=H13Q qualitative_label=fulfilled
residue_change=E14P qualitative_label="not fulfilled"
residue_change=D8P qualitative_label=fulfilled
